- System: RERF-LC-KJ
- protocolText: relative viability (nuclei count vs DMSO), 5 days (fraction); higher = more cells survive
- details: first compound 0.05 µM
relative viability reference
Quick one: just the number, no unit, thanks!

The following molecules have reported results that may help.
{"columns": ["molecule", "testSystem", "relative viability"],
 "data": [
  ["Nc1ccn([C@@H]2O[C@H](CO)[C@@H](O)[C@@H]2O)c(=O)n1 [Cytarabine] + NC(=O)Nc1cc(-c2cccc(F)c2)sc1C(=O)N[C@H]1CCCNC1 [AZD7762] (partner 0.2 µM)", "RERF-LC-KJ", 0.51],
  ["COc1cc2nccc(Oc3ccc(NC(=O)Nc4cc(C)on4)c(Cl)c3)c2cc1OC [Tivozanib] + CCNC(=O)c1noc(-c2cc(C(C)C)c(O)cc2O)c1-c1ccc(CN2CCOCC2)cc1 [Luminespib] (partner 0.01 µM)", "RERF-LC-KJ", 1.25],
  ["COc1cc2nccc(Oc3ccc(NC(=O)Nc4cc(C)on4)c(Cl)c3)c2cc1OC [Tivozanib] + COc1cc2c(Oc3ccc(NC(=O)C4(C(=O)Nc5ccc(F)cc5)CC4)cc3F)ccnc2cc1OCCCN1CCOCC1 [Foretinib] (partner 0.25 µM)", "RERF-LC-KJ", 0.849],
  ["Nc1ccn([C@@H]2O[C@H](CO)[C@@H](O)[C@@H]2O)c(=O)n1 [Cytarabine] + Cc1cc(Nc2cc(N3CCN(C)CC3)nc(Sc3ccc(NC(=O)C4CC4)cc3)n2)n[nH]1 [Tozasertib] (partner 0.1 µM)", "RERF-LC-KJ", 0.353],
  ["Nc1ccn([C@@H]2O[C@H](CO)[C@@H](O)[C@@H]2O)c(=O)n1 [Cytarabine] + C[C@@H](Oc1cc(-c2cnn(C3CCNCC3)c2)cnc1N)c1c(Cl)ccc(F)c1Cl [Crizotinib] (partner 1 µM)", "RERF-LC-KJ", 0.759],
  ["Nc1ccn([C@@H]2O[C@H](CO)[C@@H](O)[C@@H]2O)c(=O)n1 [Cytarabine] + CCNC(=O)c1noc(-c2cc(C(C)C)c(O)cc2O)c1-c1ccc(CN2CCOCC2)cc1 [Luminespib] (partner 0.01 µM)", "RERF-LC-KJ", 0.977],
  ["COc1cc2nccc(Oc3ccc(NC(=O)Nc4cc(C)on4)c(Cl)c3)c2cc1OC [Tivozanib] + COc1cccc2cc(-c3nc([C@H]4CC[C@H](C(=O)O)CC4)n4ncnc(N)c34)[nH]c12 [OSI-027] (partner 0.5 µM)", "RERF-LC-KJ", 0.657]
]}

Now look at this entry.
Q) Request the reported relative viability associated with COc1cc2nccc(Oc3ccc(NC(=O)Nc4cc(C)on4)c(Cl)c3)c2cc1OC [Tivozanib] + Cc1cc(Nc2cc(N3CCN(C)CC3)nc(Sc3ccc(NC(=O)C4CC4)cc3)n2)n[nH]1 [Tozasertib] (partner 0.1 µM)
A) 0.533

Attribution: the supplement of paper PMC10307832
